Data origin, for the record: ChEMBL document CHEMBL1123093

assay: Partition coefficient between octanol and phosphate buffer (pH 7.4) was observed for the compound; format: physicochemical
Labelling field: enter Criterion met if recorded logD is less than 1. Enter Criterion not met if it equals or exceeds that cut-off.

See these solved cases before continuing.
{"MOLECULE": "COC1=C(C)C(=O)c2c(c(COC(N)=O)c3n2CCC3OC(C)=O)C1=O (stereo unspecified)", "CLASS_LABEL": "Criterion not met"}
{"MOLECULE": "CNC(=O)OCc1c2c(n3c1C(OC(C)=O)CC3)C(=O)C(Cl)=C(OC)C2=O (stereo unspecified)", "CLASS_LABEL": "Criterion not met"}
{"MOLECULE": "COC1=CC(=O)c2c(c(COC(N)=O)c3n2CCC3OC(C)=O)C1=O (stereo unspecified)", "CLASS_LABEL": "Criterion met"}
{"MOLECULE": "CNC(=O)OCc1c2c(n3c1C(OC(C)=O)CC3)C(=O)C=C(OC)C2=O (stereo unspecified)", "CLASS_LABEL": "Criterion not met"}
{"MOLECULE": "CNC(=O)OCc1c2c(n3c1C(OC(C)=O)CC3)C(=O)C(C)=C(OC)C2=O (stereo unspecified)", "CLASS_LABEL": "Criterion not met"}

We next turn to a different molecule, shown below.
Find out if reported logD for CNC(=O)OCc1c2c(n3c1C(OC(C)=O)CC3)C(=O)C=C(N1CCCC1)C2=O (stereo unspecified) is less than 1
Criterion not met
